# Lookup of reported pIC50 keyed by entry
Target: benzodiazepine receptor
Assay: in vitro benzodiazepine receptor binding assay (displacement of tritiated flunitrazepam)
Details: concentration inhibiting specific binding of 0.5 nM tritiated flunitrazepam by 50 %; synaptosomal membranes from rat fore-brain, pH 7.5
pIC50: −log10 of the molar value. Where a name gives a salt, the structure may show the parent alone.
Experimental endpoint: pIC50

Compound: COc1ccc(-n2nc3c4c([nH]cc-3c2=O)CCCC4)cc1 [Example 12c]
Endpoint result: ~9.22
//
Compound: Cl.O=c1c2c[nH]c3c(c-2nn1-c1ccc(Cl)cc1)CCCC3 [Example 8a, hydrochloride]
Endpoint result: ~8.46
//
Compound: O=C(Nc1ccccn1)c1cnc2c(c1O)CSCC2
Endpoint result: ~8.10
//
Compound: O=c1c2c[nH]c3c(c-2nn1-c1ccc(Cl)cc1)COCC3
Endpoint result: ~9.05
//
Compound: O=c1c2c[nH]c3c(c-2nn1-c1ccc(Cl)cc1)CCCCC3 [Example 9a, hydrochloride]
Endpoint result: ~9.10
//
Compound: O=c1c2c[nH]c3c(c-2nn1-c1ccc(Cl)cc1)CSCC3
Endpoint result: ~9.46
//
Compound: O=c1c2c[nH]c3c(c-2nn1-c1ccc(Cl)cc1)CCC3
Endpoint result: ~9.30
//
Compound: CC1CCc2[nH]cc3c(=O)n(-c4ccc(Cl)cc4)nc-3c2C1.Cl (stereo not drawn) [Example 8e, hydrochloride]
Endpoint result: ~9.00
//
Compound: O=c1c2c[nH]c3c(c-2nn1-c1ccccc1)CCC3
Endpoint result: ~8.82
